- system_tested: menin protein (Homo sapiens (Human))
- Sequence (O00255 whole entry): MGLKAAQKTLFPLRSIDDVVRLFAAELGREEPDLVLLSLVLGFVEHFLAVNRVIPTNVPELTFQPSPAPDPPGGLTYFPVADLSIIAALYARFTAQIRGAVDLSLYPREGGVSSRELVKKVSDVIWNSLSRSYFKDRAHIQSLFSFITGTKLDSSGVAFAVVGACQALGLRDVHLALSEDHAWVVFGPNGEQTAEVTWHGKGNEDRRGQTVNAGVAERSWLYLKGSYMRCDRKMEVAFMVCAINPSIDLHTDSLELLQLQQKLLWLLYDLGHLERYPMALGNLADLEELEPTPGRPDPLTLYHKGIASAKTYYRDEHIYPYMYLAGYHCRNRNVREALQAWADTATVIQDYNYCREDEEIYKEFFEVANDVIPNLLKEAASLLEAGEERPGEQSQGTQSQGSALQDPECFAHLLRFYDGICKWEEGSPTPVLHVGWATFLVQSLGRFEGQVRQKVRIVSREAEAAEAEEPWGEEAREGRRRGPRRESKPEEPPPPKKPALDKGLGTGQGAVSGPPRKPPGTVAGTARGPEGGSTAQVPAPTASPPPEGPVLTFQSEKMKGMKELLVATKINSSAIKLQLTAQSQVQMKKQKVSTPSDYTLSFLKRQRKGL
- experiment_description: biochemical
- Type: binding
- test_conditions: FP competitive binding; menin protein 4 nM, FAM-MM2 probe 2 nM; read-out: Menin Binding Affinity IC50
Entries annotated with measured IC50
Quick note: unit goes after the number.

Before answering, review these 2 worked examples.
INSERT INTO measurements (compound, system_tested, test_readout, result) VALUES
  ('CN(C)C(=O)N[C@H]1CCC[C@@H]1C(Cn1ccnc1)(c1ccccc1)C1CCN(CC2CN(c3ccc(S(=O)(=O)c4cnn(C)c4)cc3)C2)CC1 (mixture of isomers)', 'menin protein (Homo sapiens (Human))', 'IC50', '6 nM'),
  ('N#Cc1ccc(N2CC(CN3CCC(C4(C5CCCC5)CN(C5COC5)Cc5ccccc54)CC3)C2)cc1 (stereo not drawn)', 'menin protein (Homo sapiens (Human))', 'IC50', '910 nM');

Problem: In one line, give reported IC50 of the entry CCN1Cc2ccccc2C(C2CCCC2)(C2CCN(CC3CN(c4ccc(S(=O)(=O)C5CC5)cc4)C3)C(C)C2)C1 (stereo not drawn) [compound 94] .
Solution: 29 nM
